- System under test: ErbB-2/3 receptor-Ig fusion (human) (UniProt P04626)
- Protocol summary: phage ELISA, soluble ErbB-2/3-Ig as competitor
Outcome measure: EC50 (nM)
Express it in nM; write the number only.

Below, each entry is followed by its recorded EC50 result.
HRG8 (wild-type HRG-β1 EGF displayed on phage) (ligand) SHLVKCAEKEKTFCVNGGECFMVKDLSNPSRYLCKCPNEFTGDRCQNYVMAS | 11
HRG11 (ligand) SHLVKCAEKEKTFCVNGGECFMVKDLSNPSRYLCKCPNEFTGDRCQNYVMASFYGGGSGGG | 19
HRG2 (HRG-β1 177-244 displayed on phage) (ligand) SHLVKCAEKEKTFCVNGGECFMVKDLSNPSRYLCKCPNEFTGDRCQNYVMASFYKHLGIEFMEAEELY | 6

I would be grateful if you could share the reported EC50 for HRG7 (ligand) SHLVKCAEKEKTFCVNGGECFMVKDLSNPSRYLCKCPNEFTGDRCQNYVMAS .
42

Lookup HRG4 (ligand) YVSSESPIRISVSTEGANTSSSTSTSTTGTSHLVKCAEKEKTFCVNGGECFMVKDLSNPSRYLCKCPNEFTGDRCQNYVMA
38

Lookup HRG5 (ligand) YVSSESPIRISVSTEGANTSSSTSTSTTGTSHLVKCAEKEKTFCVNGGECFMVKDLSNPSRYLCKCPNEFTGDRCQNYVMASFYKHLGIEFMEAEELY
4.7

Lookup HRG6 (ligand) SHLVKCAEKEKTFCVNGGECFMVKDLSNPSRYLCKCPNEFTGDRCQNYVMA
40
